Across several studies, compounds have been characterized by their pIC50 on C-C chemokine receptor type 3 (Homo sapiens, UniProt P51677); a selection follows.
// scale note: pIC50 = -log10(conc_M); give the bare number

Q: Lab request: please report pIC50 under test system C-C chemokine receptor type 3 (Homo sapiens, UniProt P51677) for `O=C(Nc1cccc(Cl)c1Cl)N[C@@H]1CCC[C@H]1N1CCC(Cc2ccc(Cl)cc2)CC1`
A: 5.94

Q: Lab request: please report pIC50 under test system C-C chemokine receptor type 3 (Homo sapiens, UniProt P51677) for `N#Cc1cccc(/C=C/C(=O)N[C@H](Cc2ccco2)CN2CCC(C(=O)c3ccc(F)cc3)CC2)c1`
A: 8.00

Q: Lab request: please report pIC50 under test system C-C chemokine receptor type 3 (Homo sapiens, UniProt P51677) for C[N+]1(CC2CCCCCCC2)CCC(NC(=O)C2c3cc(Br)ccc3Oc3ccc(Br)cc32)CC1 (stereo not shown)
A: 7.89

Q: Lab request: please report pIC50 under test system C-C chemokine receptor type 3 (Homo sapiens, UniProt P51677) for `COc1ccc(Br)cc1/C=C/C(=O)N[C@H](CO)CN1CCC(C(=O)c2ccc(F)cc2)CC1`
A: 7.96

* * *

pIC50: −log10 of the molar value.
Across several studies, compounds have been characterized by their pIC50 on C-C chemokine receptor type 3 (Homo sapiens); a selection follows.
Kindly return T if reported pIC50 is no lower than 7; return F if it is lower.

Q: Does the reported pIC50 for CC(C)C(CN1CCN(Cc2ccc(Cl)c(Cl)c2)CC1)NS(=O)(=O)c1ccc(F)cc1 (stereo in doubt) fall at or above the 7 mark?
A: F

Q: Does the reported pIC50 for `O=C(N[C@@H]1CCC[C@H]1N1CCC(Cc2ccc(Cl)cc2)CC1)C1CCCCC1` fall at or above the 7 mark?
A: F

Q: Does the reported pIC50 for `COc1cc(NC(=O)N[C@@H](CCN2CC(Oc3ccc(Cl)cc3)C2)COC(C)=O)cc(OC)c1` fall at or above the 7 mark?
A: T

Q: Does the reported pIC50 for `O=C(N[C@@H]1CCC[C@H]1N1CCC(Cc2ccc(Cl)cc2)CC1)OCc1ccc([N+](=O)[O-])cc1` fall at or above the 7 mark?
A: F

Q: Does the reported pIC50 for `COc1ccc(C#N)cc1/C=C/C(=O)N[C@H](CC(=O)N(C)CCO)CN1CCC(Oc2ccc(F)cc2)CC1` fall at or above the 7 mark?
A: T

Q: Does the reported pIC50 for `COc1ccc(C#N)cc1/C=C/C(=O)N[C@H](CO)CN1CCC(Cc2ccc(F)cc2)CC1` fall at or above the 7 mark?
A: T

Q: Does the reported pIC50 for `CCc1cc(NC(=O)N[C@H](CO)CCN2CC(Oc3ccc(Cl)cc3)C2)n(C)n1` fall at or above the 7 mark?
A: T

Q: Does the reported pIC50 for `CN(CCCCNC(=O)Nc1ccc(F)c(F)c1)Cc1ccc(F)cc1` fall at or above the 7 mark?
A: T

Q: Does the reported pIC50 for `O=C(NCCc1cccs1)N[C@@H]1CCC[C@H]1N1CCC(Cc2ccc(Cl)cc2)CC1` fall at or above the 7 mark?
A: F

Q: Does the reported pIC50 for CC(C)C(CN1CCN(Cc2ccc(Cl)c(Cl)c2)CC1)NC(=O)c1ccncc1 (stereo not shown) fall at or above the 7 mark?
A: F

Q: Does the reported pIC50 for `Cc1cc(C(=O)NCC(=O)NCC2CN(Cc3ccc(Cl)c(Cl)c3)C2)c(C)n1Cc1ccncc1` fall at or above the 7 mark?
A: F

Q: Does the reported pIC50 for CC[N+]1(C[C@H](NC(=O)Nc2cc(OC)c(OC)c(OC)c2)C(C)C)CCC(Cc2ccc(Cl)c(Cl)c2)CC1 (stereo partly shown) fall at or above the 7 mark?
A: F

Q: Does the reported pIC50 for `Cc1noc(C)c1S(=O)(=O)N1CCC(CN2CCN(Cc3ccc(F)cc3)CC2)CC1` fall at or above the 7 mark?
A: F

Q: Does the reported pIC50 for `COc1ccc(Cl)cc1/C=C/C(=O)N[C@H](CO)CN1CCC(C(=O)c2ccc(Cl)cc2)CC1` fall at or above the 7 mark?
A: T
